- assay_comment: Induction of apoptosis in mouse RAW264.7 cells assessed as viable cells at 5 uM after 24 hrs by FITC-annexin V/PI staining based flow cytometry (RVB = 98.51%)
- Type: cell-based
- condition_details: read-out: Activity
measured_metric: viability at 24 h, 5 µM (%)
Reply with just the number (in %).

[ask] Fill in reported viability at 24 h, 5 µM for this entry: `CCCCCCCCCC[N+](C)(CCCCCCCCCC)CCC[C@]1(O)CC[C@H]2[C@@H]3CCc4cc(O)ccc4[C@H]3CC[C@@]21C.[Cl-]`
[reply] 99.1

---

- assay_comment: Induction of apoptosis in CHO cells assessed as viable cells at 5 uM after 24 hrs by FITC-annexin V/PI staining based flow cytometry (RVB = 99.21%)
- Assay type: cell-based, Cricetulus griseus
- condition_details: chinese hamster, read-out: Activity
measured_metric: viability at 24 h, 5 µM
Give me the value, and tack the unit on after it.

[ask] Name the recorded viability at 24 h, 5 µM of the molecule listed here: `CCCCCCCCCC[N+](C)(CCCCCCCCCC)CCC[C@]1(O)CC[C@H]2[C@@H]3CCc4cc(O)ccc4[C@H]3CC[C@@]21C.[Cl-]`
[reply] 98.3%

---

Measured pIC50, listed per entry for reference.
- Tested on: MCF7
- assay_comment: Antiproliferative activity human ER-positive MCF7 cells after 2 days by MTT assay
- Format: functional, cell-based
- condition_details: MCF7, 48 h
# pIC50: negative log10 of molar concentration; output just the value

Take a look at these entries with their results.
[ask] Read the entry `CCCCCCCC[N+](C)(CCCCCCCC)CCC[C@]1(O)CC[C@H]2[C@@H]3CCc4cc(O)ccc4[C@H]3CC[C@@]21C` and write its reported pIC50.
[reply] 5.27

[ask] Look up pIC50 of `C[C@]12CC[C@@H]3c4ccc(O)cc4CC[C@H]3[C@@H]1CC[C@@H]2O` and report it.
[reply] 4.56

Continuing:
[ask] Specify reported pIC50 for the molecule shown: `CCCCCCCCCCCC[N+](C)(CCCCCCCCCCCC)CCC[C@]1(O)CC[C@H]2[C@@H]3CCc4cc(O)ccc4[C@H]3CC[C@@]21C`
[reply] 5.21

---

- System: MCF7
- assay_comment: Antiproliferative activity human ER-positive MCF7 cells after 2 days by MTT assay
- Type: functional, cell-based
- condition_details: MCF7, 48 h
Listed below: IC50 values for each entry.
Number plus unit, in that order.

[ask] // output IC50; input `CCCCCCCCCCCCCC[N+](C)(CCCCCCCCCCCCCC)CCC[C@]1(O)CC[C@H]2[C@@H]3CCc4cc(O)ccc4[C@H]3CC[C@@]21C` ; system MCF7
[reply] 17.4 µM

New cases:
[ask] Report IC50 from MCF7 testing of `CCCCCCCCCC[N+](C)(CCCCCCCCCC)CCC[C@]1(O)CC[C@H]2[C@@H]3CCc4cc(O)ccc4[C@H]3CC[C@@]21C.[Cl-]`
[reply] 1.36 µM

[ask] Look up and report measured IC50 (MCF7) for the following molecule: `CCCCCC[N+](C)(CCCCCC)CCC[C@]1(O)CC[C@H]2[C@@H]3CCc4cc(O)ccc4[C@H]3CC[C@@]21C`
[reply] 7.85 µM

[ask] With MCF7 as the test system, provide measured IC50 for this molecule: CC/C(=C(\c1ccccc1)c1ccc(OCCN(C)C)cc1)c1ccccc1 [TAMOXIFEN]
[reply] 4.67 µM
